Recorded measurements of logP, one per entry
Protocol: Lipophilicity, logP of compound
Type: physicochemical
Assay Context: octanol/water
Note: the reply should be a number with no unit written.

Use these answered entries as a reference point.
{"Chemical String": "COc1ccc2c(c1)CCc1c(-c3ccccc3)c3n(c1-2)[B-](F)(F)[N+]1=C(c2ccc(OCC(=O)N[C@@H](CCC(=O)O)C(=O)O)cc2)C(I)=C(c2ccccc2)C1=N3", "logP": -0.71}
{"Chemical String": "COc1ccc(C2=[N+]3C(=Nc4c(-c5ccccc5)c5c(n4[B-]3(F)F)-c3ccc(OCC(=O)N[C@@H](CC(=O)O)C(=O)O)cc3CC5)C(c3ccccc3)=C2I)cc1", "logP": -0.77}
{"Chemical String": "COc1ccc(C2=[N+]3C(=Nc4c(-c5ccccc5)c5c(n4[B-]3(F)F)-c3ccc(OCC(=O)O)cc3CC5)C(c3ccccc3)=C2I)cc1", "logP": 0.94}

query: Could you share which logP value was measured for COc1ccc(C2=[N+]3C(=Nc4c(-c5ccccc5)c5c(n4[B-]3(F)F)-c3ccc(OCC(=O)N[C@@H](CCC(=O)O)C(=O)O)cc3CC5)C(c3ccccc3)=C2I)cc1 ?
result: -0.74

query: Can you handle COc1ccc2c(c1)CCc1c(-c3ccccc3)c3n(c1-2)[B-](F)(F)[N+]1=C(c2ccc(OCC(=O)O)cc2)C(I)=C(c2ccccc2)C1=N3 next?
result: 0.92

query: Can you handle COc1ccc2c(c1)CCc1c(-c3ccccc3)c3n(c1-2)[B-](F)(F)[N+]1=C(c2ccc(OCC(=O)N[C@@H](CC(=O)O)C(=O)O)cc2)C(I)=C(c2ccccc2)C1=N3 next?
result: -0.73
